Give melting point for every item shown.

Prompt: # input compound: O=c1ccn(C2CC(O)C(CNC(c3ccccc3)(c3ccccc3)c3ccccc3Cl)O2)c(=O)[nH]1 (stereo not given) ; wanted: its melting point
Response: 129 to 131 °C

Prompt: What do we get for CCC(NCCN)(C(=O)O)c1cccc(Cl)c1 (stereo not given) ?
Response: 207 to 208 °C

Prompt: What do we get for `CCc1nnc(CCCOc2c(C)cc(-c3noc(C(F)F)n3)cc2C)s1` ?
Response: 83 to 84 °C

Prompt: What do we get for `O=C(O)CCCCCn1c2ccccc2c(=O)c2cc(Br)ccc21` ?
Response: 213 °C

Prompt: What do we get for CC1Oc2ccc(C(F)(F)F)cc2NC1=O (stereo not given) ?
Response: 142 to 144 °C

Prompt: What do we get for `CC(C)(C)OC(=O)N1CCC(O)(CS(N)(=O)=O)CC1` ?
Response: 176 to 180 °C

Prompt: What do we get for `COc1ccccc1NC(=O)Nc1ccc(CC(=O)O)cc1C` ?
Response: 260 to 264 °C

Prompt: What do we get for `CCCCc1nn2cccc(C(=O)OCC)c2c1C(=O)c1ccc(Br)cc1` ?
Response: < 50 °C

Prompt: What do we get for `Cc1ccc(S(=O)(=O)n2cc(C[C@H]3CCCN3C)c3cc(Br)ccc32)cc1` ?
Response: 98 to 104 °C

Prompt: What do we get for COc1ccc(C(C#Cc2cccc(-c3nnc(C)o3)c2)CC(=O)O)cc1OC1CCCC1 (racemic) ?
Response: 110 to 114 °C

Data origin, for the record: a melting point compilation (Tetko et al.; mined from patent text by program, amines drawn as free bases though some values may be those of a salt)
